Value source: paper PMC6958375

Tested on: MDA-MB-231 cells
Experiment: Cell growth assay (MTS), MDA-MB-231
Type: cell-based, human
Conditions: cell growth inhibition, 72 h of treatment, mean ± SE
recorded_metric: pIC50
pIC50 field: float, defined as -log10 of concentration (mol/L).

For MDA-MB-231 cells, provide pIC50 of C#CCOc1ccc(/C=C/C(=O)CC(=O)/C=C/c2ccc(OCC#C)c(OC)c2)cc1OC [Compound 2] please.
4.70

----------
Test system: MDA-MB-231 cells
Assay: Cell growth assay (MTS), MDA-MB-231
Type: cell-based, human
Conditions: Homo sapiens, MDA-MB-231, cell growth inhibition, 72 h of treatment, mean ± SE
recorded_metric: IC50
I'd appreciate it if you included the unit after the number.

For MDA-MB-231 cells, provide IC50 of COc1cc(/C=C/C(=O)CC(=O)/C=C/c2ccc(O)c(OC)c2)ccc1O [Curcumin, reference compound] please.
25.5 µM

----------
Test system: HL60 cells
Assay: Cell growth assay, HL60
Format: cell-based
Conditions: acute promyelocytic leukemia HL60, cell growth assay; read-out: HL60 IC50
recorded_metric: IC50 (µM)
# unit: µM | format: bare number

For HL60 cells, provide IC50 of C#CCOc1ccc(/C=C/C(=O)CC(=O)/C=C/c2ccc(OCC#C)c(OC)c2)cc1OC [Compound 2] please.
17
